- Test system: KURAMOCHI
- procedure-details: drug sensitivity score (DSS2) on cancer cell count; higher = more sensitive; extreme values may be limits of the assay
- experimental-context: co-cultured fibroblast: BJHTERT; 72 h
readout-label: drug sensitivity score (DSS)
Give the value in DSS but do not write DSS after it.

// solved cases for drug sensitivity score follow
molecule	readout-label	units-symbol	quantitative-result
Cc1[nH]nc(C(F)(F)F)c1Cc1sc2c(c1C(=O)N1C[C@](C)(O)CO1)c(=O)n(C)c(=O)n2C(C)C [AZD3965]	drug sensitivity score	DSS	0
CC(C)(O)CC(=O)NCCn1ccc2ncnc(Nc3ccc(Oc4cccc(C(F)(F)F)c4)c(Cl)c3)c21 [TAK-285]	drug sensitivity score	DSS	5.2
CNc1ncc2cc(-c3cc(NC(=O)NCCC(C)(C)C)c(F)cc3C)c(C)nc2n1	drug sensitivity score	DSS	12.7
C=C1C[C@@H]2CC[C@@]34C[C@H]5O[C@H]6[C@@H](O3)[C@H]3O[C@H](CC[C@@H]3O[C@H]6[C@H]5O4)CC(=O)C[C@@H]3[C@@H](OC)[C@@H](C[C@H](O)CN)O[C@H]3C[C@H]3O[C@@H](CC[C@@H]1O2)C[C@@H](C)C3=C [Eribulin]	drug sensitivity score	DSS	28.8
Cc1ccc(C(=O)Nc2ccc(Oc3cc4cnn(C)c4cc3-c3cn[nH]c3)c(F)c2)c(=O)n1-c1ccc(F)cc1 [Merestinib]	drug sensitivity score	DSS	0

Exercise: Quick one: drug sensitivity score of COc1cc(Nc2ncc(F)c(Nc3ccc4c(n3)N(COP(=O)(O)O)C(=O)C(C)(C)O4)n2)cc(OC)c1OC [Fostamatinib] ?
Key: 0

Exercise: Now try C=C1C[C@@H]2[C@H](CC[C@]3(C)C(=O)CC[C@@H]23)[C@@]2(C)C=CC(=O)C=C12 [Exemestane] .
Key: 0

Exercise: // query: CC(C)C[C@@H](C(=O)N[C@H](C(=O)OC1CCCC1)c1ccccc1)[C@H](O)C(=O)NO [Tosedostat]
Key: 2

Exercise: Let us now turn to Nc1cc(C(F)(F)F)c(-c2cc(N3CCOCC3)nc(N3CCOCC3)n2)cn1 [Buparlisib]
Key: 9.1
